assay: method code SF-AS, from DOI: 10.1021/j150653a049
Overview of reported logP across a group of compounds:

OCc1cc(Cl)ccc1O 1.44
OCc1ccccc1O 0.56

Field logP (entry OCc1cc(Cl)cc(Cl)c1O ) reads 2.3

====

MEASUREMENT TYPE: logP

COMPOUND	logP
CSc1nc(NCCc2ccccc2)c2cnn(C(Cl)c3ccc(Cl)cc3)c2n1 (configuration not stated)	6.54

Now let's try a different one.
Field logP (entry CSc1nc(NCc2cccc(Cl)c2)c2cnn(CC(Cl)c3ccccc3)c2n1 (configuration not stated) ) reads 5.87

====

assay: method code SF-HPLC, from DOI: 10.1016/0378-5173(94)90060-4; settings: pH 5.0
MEASUREMENT TYPE: logD
Would you mind answering with just the numeric figure?

Field logD (entry COC(=O)Nc1nc2cc(C(=O)c3ccccc3)ccc2n1C(=O)OC ) reads 2.47

====

test: method code SF-HPLC, from DOI: 10.1002/jps.2600840603, PMID: 7562403; details: pH 7.4
MEASUREMENT TYPE: logD

Field logD (entry CCCC1O[C@@H]2C[C@H]3[C@@H]4CCC5=CC(=O)C=C[C@]5(C)[C@H]4[C@@H](O)C[C@]3(C)[C@]2(C(=O)CO)O1 (stereo partly specified) ) reads 3.55

====

Overview of reported logP across a group of compounds:
Would you mind answering with just the numeric figure?

Some solved entries appear below for comparison.
c1ccc2nn(C34CC5CC(CC(C5)C3)C4)nc2c1 4.3
c1ccc2c(c1)ncn2C12CC3CC(CC(C3)C1)C2 3.64
c1cnn(C23CC4CC(CC(C4)C2)C3)c1 3.05
c1ccc2c(c1)cnn2C12CC3CC(CC(C3)C1)C2 4.33

Now let's try a different one.
Field logP (entry c1cn(C23CC4CC(CC(C4)C2)C3)cn1 ) reads 2.9

====

assay: method code SF, from DOI: 10.1021/jm0201114, PMID: 12238930; settings: pH 7.4
MEASUREMENT TYPE: logD
Would you mind answering with just the numeric figure?

Field logD (entry COc1cc2ncnc(N3CCN(C(=S)NCCc4ccco4)CC3)c2cc1OC ) reads 2.75

====

assay: method code SF-HPLC, from DOI: 10.1016/0378-5173(95)00102-o
MEASUREMENT TYPE: logP
Would you mind answering with just the numeric figure?

Field logP (entry CCCCCCOC(=O)c1cccnc1 ) reads 3.51

====

Threshold check on logP: strictly below 4 is 1 (yes); on or above 4 is 0 (no).

MOLECULE	ASSIGNED CLASS
C=CCOc1ccccc1OCC(CNC(C)C)OC(C)=O (configuration not stated)	1 (yes)
C=CCOc1ccccc1OCC(CNC(C)C)OC(=O)C1CC1 (configuration not stated)	1 (yes)
C=CCOc1ccccc1OCC(CNC(C)C)OC(=O)CC (configuration not stated)	1 (yes)
C=CCOc1ccccc1OCC(CNC(C)C)OC(=O)C(C)C (configuration not stated)	1 (yes)
C=CCOc1ccccc1OCC(CNC(C)C)OC(=O)C(C)(C)C (configuration not stated)	1 (yes)

API: the following record is the query input.
Check if logP falls below 4 for C=CCOc1ccccc1OCC(CNC(C)C)OC(=O)c1ccc([N+](=O)[O-])cc1 (configuration not stated) . 0 (no)

====

details: pH 7.4
MEASUREMENT TYPE: logD
Would you mind answering with just the numeric figure?

Field logD (entry Cc1c(C(=O)Nc2ccc(F)cc2)nn(-c2ccc(Cl)cc2Cl)c1-c1ccc(Br)cc1 ) reads 4

====

MEASUREMENT TYPE: logP

Field logP (entry O=C(O)CCCn1c(=O)oc2ccccc2c1=O ) reads 0.2

====

experiment: method code SF, from Wang, L.; Li, H.; Wang, X.; Zhang, Z. (1993). Determination of aqueous solubilities and partition coefficients of substitutive ethylketone congeners by generator column. Huanjing Huaxue, 12(2)151-154.
Overview of reported logP across a group of compounds:

COc1ccc(C(=O)CSc2ccccc2)cc1 2.2

Now let's try a different one.
Field logP (entry Cc1ccc(SCC(=O)c2ccc(C)cc2)cc1 ) reads 3.19

====

Overview of reported logP across a group of compounds:
Would you mind answering with just the numeric figure?

COMPOUND	MEASUREMENT TYPE	NUMERIC RESULT
COC1C(N)CC(OC2CC(O)(C(=O)CO)Cc3c(O)c4c(c(O)c32)C(=O)c2ccccc2C4=O)OC1C (centres undefined)	logP	0.39

Field logP (entry COc1cccc2c1C(=O)c1c(O)c3c(c(O)c1C2=O)C[C@@](O)(C(=O)CO)C[C@@H]3O[C@H]1C[C@H](N)C[C@H](C)O1 ) reads 0.01

Field logP (entry CC(=O)C1(O)Cc2c(O)c3c(c(O)c2C(OC2CC(N)C(O)C(C)O2)C1)C(=O)c1c(O)cccc1C3=O (centres undefined) ) reads 0.96

Field logP (entry CC(=O)C1(O)Cc2c(O)c3c(c(O)c2C(OC2CC(N)C(O)C(C)O2)C1)C(=O)c1ccccc1C3=O (centres undefined) ) reads 0.68

====

test: method code SF-HPLC, from Bhosale, A.; Agrawal, G.; Mishra, P. (2004). Preparation and characterization of mutual prodrugs of ibuprofen. Indian Journal of Pharmaceutical Sciences, 66, 158-163.; settings: pH 1.2
MEASUREMENT TYPE: logD

Field logD (entry CC(C)Cc1ccc(C(C)C(=O)Oc2ccccc2C(N)=O)cc1 (stereo unspecified) ) reads 1.54

====

Overview of reported logP across a group of molecules:
experiment: method code SF-AS, from DOI: 10.1016/0021-9673(91)80064-n
Would you mind answering with just the numeric figure?

C=CC(=O)NCCN1CCOCC1 -0.55

Now let's try a different one.
Field logP (entry C=CC(=O)NCCCN1CCOCC1 ) reads -0.52

====

Overview of reported logD across a group of molecules:
assay: method code SF, from DOI: 10.1016/0360-3016(86)90226-9, PMID: 3744928; settings: pH 7.4
Would you mind answering with just the numeric figure?

Some solved entries appear below for comparison.
MOLECULE	logD
O=[N+]([O-])c1ncn(CC(O)CN2CC2)n1 (stereo not drawn)	-0.72
O=C(Cn1cnc([N+](=O)[O-])n1)N1CCOCC1	-0.96

Now let's try a different one.
Field logD (entry CCCCNC(=O)Cn1cnc([N+](=O)[O-])n1 ) reads 0.89

====

assay: method code SF, from DOI: 10.1080/09553009014551091, PMID: 1970998; conditions: pH 7.4
MEASUREMENT TYPE: logD
Would you mind answering with just the numeric figure?

Field logD (entry O=C(NCCO)C(F)(F)Cn1ccnc1[N+](=O)[O-] ) reads -0.52

====

assay: method code SF, from DOI: 10.1016/j.bcp.2004.09.021, PMID: 15627482; conditions: pH 7.0
MEASUREMENT TYPE: logD
Would you mind answering with just the numeric figure?

COMPOUND	NUMERIC RESULT
CCCCC1(C(=O)OCCC)CCC=[N+]1[O-] (configuration not stated)	1.16

Now let's try a different one.
Field logD (entry CCCCC1(C(=O)OC(C)CC)CCC=[N+]1[O-] (configuration not stated) ) reads 1.59

====

experiment: method code SF-RC, from DOI: 10.1016/j.nucmedbio.2006.10.003, PMID: 17210465; settings: pH 7.4
MEASUREMENT TYPE: logD
Would you mind answering with just the numeric figure?

Field logD (entry CN(C)c1ccc(C=Cc2ccc(OCCOCCOCCF)cc2)cc1 ) reads 2.41

====

Overview of reported logP across a group of molecules:

MOLECULE	logP
COP(=O)(OC)O/C(C)=C/C(=O)OC(C)c1ccccc1 (configuration not stated)	3

Field logP (entry ClC1=C(Cl)C2(Cl)C3C4C=CC(C4)C3C1(Cl)C2(Cl)Cl (configuration not stated) ) reads 5.67

====

Overview of reported logP across a group of molecules:
Would you mind answering with just the numeric figure?

Some solved entries appear below for comparison.
CCOP(=S)(OCC)Oc1cc(-c2ccccc2)on1 4.58
COP(=S)(OC)Oc1c(Cl)cc(C)cc1Cl 4.36

Field logP (entry O=C(Nc1ccccc1)N(Cc1ccc(Cl)cc1)C1CCCC1 ) reads 4.7

Field logP (entry O=C1OCc2c(Cl)c(Cl)c(Cl)c(Cl)c21 ) reads 3.22

====

test: method code SF, from DOI: 10.1016/j.ejps.2014.02.002, PMID: 24530864; settings: pH 7.4
MEASUREMENT TYPE: logD

Field logD (entry Cc1ncc2n1-c1ccc(Cl)cc1C(c1ccccc1F)=NC2 ) reads 3

====

MEASUREMENT TYPE: logP
Would you mind answering with just the numeric figure?

COMPOUND	logP
CCN(CC)C(=O)Nc1ccc(OCC(O)CNC(C)(C)C)c(C(C)=O)c1 (configuration not stated)	1.92

Now let's try a different one.
Field logP (entry N#Cc1ccc2c(c1)N(CCCN1CCC(O)CC1)c1ccccc1S2 ) reads 3.89
